run.description: Ferric ion reducing antioxidant power (FRAP)
condition.description: 50 μM; mean ± SD (n = 3)
Exercise: state measured Ferric ion reducing antioxidant power (FRAP), absorbance at 593 nm for each of the molecules provided.
Reply with just the number.

Lookup: Consider the molecule CC(C)=CCCC(C)C(/C=[N+](\C)[O-])Sc1ccccc1 (stereo not shown) [5a] and give its measured Ferric ion reducing antioxidant power (FRAP), absorbance at 593 nm.
Found: 0.572

Lookup: Same question for CC(C)=CCCC(C)(C/C=[N+](\C)[O-])Sc1ccccc1 (stereo not shown) [5c] please.
Found: 0.543

Lookup: Same question for CC(C)=CCCC(C)C/C=[N+](\C)[O-] (stereo not shown) [5d] please.
Found: 1.198

Lookup: Same question for CC(C)=CCC[C@@H](C)C(/C=N/O)[Se]c1ccccc1 (stereo partly shown) [compound 10] please.
Found: 0.180
